# Tested on: CEM cells HIV-1 protection, formazan growth assay
# measurement-notes: NCI AIDS Antiviral Assay
# measurement-parameters: measured here: growth of uninfected CEM cells
Let's look at some compounds and their measured IC50.
reported-metric: IC50

>>> result("Cc1cc2c(c(C(C)(C)C)c1)O[P+](=O)Oc1c(cc(C)cc1C(C)(C)C)C2")
"> 18.6 µM"
>>> result("C[Si](C)(C)c1ccc(CC2(Cc3ccc([Si](C)(C)C)cc3)CCNC2)cc1")
"> 5.01 µM"
>>> result("Cl[Si]1(Cl)Oc2ccccc2O[Si](Cl)(Cl)Oc2ccccc2O1")
"> 12.6 µM"
>>> result("O=c1oc2ccc(Br)cc2cc1-n1nnc2cc([N+](=O)[O-])ccc21")
"> 17.4 µM"
>>> result("Cc1ccc(C23c4ccccc4CCN2C(=O)C3N)cc1 (stereo not given)")
"117 µM"
>>> result("N#C/C=C/c1cccc(C#N)c1")
"> 46.8 µM"
>>> result("COc1ccc(/C=C2\\Cc3ccccc3C2=O)cc1")
"> 20 µM"
>>> result("Fc1ccc2c(c1)SC1Oc3ccccc3-c3c1c-2nn3-c1ccccc1 (stereo not given)")
"> 19.5 µM"
>>> result("CON(C)c1nc2ccccc2o1")
"107 µM"
>>> result("Cc1ccc(/C=C2\\CCS(=O)(=O)c3ccccc3C2=O)cc1")
"9.77 µM"
